This collection of values is drawn from patent US10787447B2.

Biological target: human muscarinic M4 receptor (Homo sapiens)
Sequence (P08173 whole entry): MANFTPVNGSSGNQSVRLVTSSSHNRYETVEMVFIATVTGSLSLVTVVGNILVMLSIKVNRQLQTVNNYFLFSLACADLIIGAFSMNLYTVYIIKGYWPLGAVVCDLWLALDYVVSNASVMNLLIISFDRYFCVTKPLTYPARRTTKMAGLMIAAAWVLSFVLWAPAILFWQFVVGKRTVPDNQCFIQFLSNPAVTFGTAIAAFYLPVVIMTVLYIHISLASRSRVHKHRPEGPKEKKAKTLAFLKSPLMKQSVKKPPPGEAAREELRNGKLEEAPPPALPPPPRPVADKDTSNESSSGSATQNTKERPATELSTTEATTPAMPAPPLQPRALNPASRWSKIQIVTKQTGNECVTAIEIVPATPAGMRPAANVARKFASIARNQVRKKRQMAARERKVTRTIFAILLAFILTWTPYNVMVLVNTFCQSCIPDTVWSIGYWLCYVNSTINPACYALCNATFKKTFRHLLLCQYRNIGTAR
Assay: Alphascreen Surefire phospho-ERK1/2 functional assay, M4
Assay type: cell-based
Details: pEC50 M4, CHO cells stably expressing human M4; phospho-ERK1/2
Measured EC50, listed per entry for reference.
// return numeric value only (unit: nM, not printed)

[
  {
    "MOLECULE": "CCOC(=O)N1C2COCC1CC(N1CCC(n3cc(C)cn3)CC1)C2 (single isomer, unassigned) [Example 1-3 Isomer 1]",
    "UOM": "nM",
    "OBSERVED": 7.24
  },
  {
    "MOLECULE": "CCOC(=O)N1C2COCC1CC(N1CCC(n3cccn3)CC1)C2 (single isomer, unassigned) [Example 1-1 Isomer 1]",
    "UOM": "nM",
    "OBSERVED": 52.5
  },
  {
    "MOLECULE": "CCOC(=O)N1C2COCC1CC(N1CCC3(CC1)OC(=O)NC3CC)C2 (single isomer, unassigned) [Example 5-4 Isomer 1b]",
    "UOM": "nM",
    "OBSERVED": 316
  }
]

Data point: CCOC(=O)N1C2COCC1CC(N1CCC(n3cc(C)cn3)CC1)C2 (single isomer, unassigned) [Example 1-3 Isomer 2] ; EC50 = 112

molecule CCOC(=O)N1C2COCC1CC(N1CCC(N(CC3(C)CC3)C(C)=O)CC1)C2 (single isomer, unassigned) [Example 6-3 Isomer 2] , EC50 observed: 389

Record summary for CCOC(=O)N1C2COCC1CC(N1CCC(N(CC(C)C)C(C)=O)CC1)C2 (single isomer, unassigned) [Example 6-1 Isomer 1] : reported EC50 = 151

Record COC(=O)N1C2COCC1CC(N1CCC(N(Cc3ccccc3)C(C)=O)CC1)C2 (single isomer, unassigned) [Example 8-2 Isomer 1] . Reported EC50: 661

So, CCOC(=O)N1C2COCC1CC(N1CCC3(CC1)OC(=O)NC3CC)C2 (single isomer, unassigned) [Example 5-4 Isomer 2a] ? Its EC50 was 200

====

compounds and their reported EC50
Molecular target: human muscarinic M3 receptor (Homo sapiens)
Construct: expressed in transfected cells
Sequence (P20309 whole entry): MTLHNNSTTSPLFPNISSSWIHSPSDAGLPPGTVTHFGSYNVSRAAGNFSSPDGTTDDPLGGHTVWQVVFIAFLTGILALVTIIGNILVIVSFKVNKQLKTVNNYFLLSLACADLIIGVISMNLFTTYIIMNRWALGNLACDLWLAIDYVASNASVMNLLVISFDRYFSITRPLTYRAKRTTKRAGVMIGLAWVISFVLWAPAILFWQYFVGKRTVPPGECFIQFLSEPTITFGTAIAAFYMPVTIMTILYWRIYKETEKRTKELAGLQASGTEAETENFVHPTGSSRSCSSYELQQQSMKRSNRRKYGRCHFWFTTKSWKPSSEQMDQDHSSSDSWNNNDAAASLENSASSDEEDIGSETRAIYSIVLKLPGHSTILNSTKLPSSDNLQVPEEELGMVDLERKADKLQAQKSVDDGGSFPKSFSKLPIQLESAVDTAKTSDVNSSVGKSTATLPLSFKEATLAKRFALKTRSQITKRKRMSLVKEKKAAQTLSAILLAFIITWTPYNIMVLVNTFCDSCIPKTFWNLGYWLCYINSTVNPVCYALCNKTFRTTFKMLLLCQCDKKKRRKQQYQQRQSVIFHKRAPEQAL
Assay: Alphascreen Surefire phospho-ERK1/2 functional assay, M3
Format: cell-based
Conditions: pEC50 M3, CHO cells stably expressing human M3; phospho-ERK1/2
Procedure: ERK1/2 phosphorylation is a downstream consequence of both Gq/11 and Gi/o protein coupled receptor activation, making it highly suitable for the assessment of M1, M3 (Gq/11 coupled) and M2, M4 receptors (Gi/o coupled), rather than using different assay formats for different receptor subtypes. CHO cells stably expressing the human muscarinic M1, M2, M3 or M4 receptor were plated (25K/well) onto 96-well tissue culture plates in MEM-alpha+10% dialysed FBS. […]

Worked set:
[
  {
    "COMPOUND": "CCOC(=O)N1C2COCC1CC(N1CCC(C(=O)NCC3CCC3)CC1)C2 (single isomer, unassigned) [Example 7-3 Isomer 1]",
    "OBSERVED": "> 20 µM"
  },
  {
    "COMPOUND": "CCOC(=O)N1C2COCC1CC(N1CCC(N(Cc3ccccc3)C(C)=O)CC1)C2 (single isomer, unassigned) [Example 6-5 Isomer 2]",
    "OBSERVED": "2.82 µM"
  },
  {
    "COMPOUND": "CCOC(=O)N1C2COCC1CC(N1CCC(n3cccn3)CC1)C2 (single isomer, unassigned) [Example 1-1 Isomer 1]",
    "OBSERVED": "> 20 µM"
  }
]

Please fill in: EC50 reported for CCOC(=O)N1C2COCC1CC(N1CCC(c3ccc[nH]c3=O)CC1)C2 (single isomer, unassigned) [Example 2-3 Isomer 1] = > 20 µM

Kindly note the recorded EC50 for CCOC(=O)N1C2COCC1CC(N1CCC(n3cc(C)cn3)CC1)C2 (single isomer, unassigned) [Example 1-3 Isomer 2] , which is > 20 µM

The value of EC50 measured for the compound CCOC(=O)N1C2COCC1CC(N1CCC3(CC1)CNC(=O)C3)C2 (single isomer, unassigned) [Example 5-2 Isomer 2] turned out to be > 20 µM
